Hello, the source for this data is paper PMC4336329, in case you need it.

system: human ether-à-go-go-related gene (hERG) potassium channel (human, UniProt Q12809);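 also: peak tail current of the secondary pulse compared with the same well before compound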
Sequence (Q12809 whole entry, looked up): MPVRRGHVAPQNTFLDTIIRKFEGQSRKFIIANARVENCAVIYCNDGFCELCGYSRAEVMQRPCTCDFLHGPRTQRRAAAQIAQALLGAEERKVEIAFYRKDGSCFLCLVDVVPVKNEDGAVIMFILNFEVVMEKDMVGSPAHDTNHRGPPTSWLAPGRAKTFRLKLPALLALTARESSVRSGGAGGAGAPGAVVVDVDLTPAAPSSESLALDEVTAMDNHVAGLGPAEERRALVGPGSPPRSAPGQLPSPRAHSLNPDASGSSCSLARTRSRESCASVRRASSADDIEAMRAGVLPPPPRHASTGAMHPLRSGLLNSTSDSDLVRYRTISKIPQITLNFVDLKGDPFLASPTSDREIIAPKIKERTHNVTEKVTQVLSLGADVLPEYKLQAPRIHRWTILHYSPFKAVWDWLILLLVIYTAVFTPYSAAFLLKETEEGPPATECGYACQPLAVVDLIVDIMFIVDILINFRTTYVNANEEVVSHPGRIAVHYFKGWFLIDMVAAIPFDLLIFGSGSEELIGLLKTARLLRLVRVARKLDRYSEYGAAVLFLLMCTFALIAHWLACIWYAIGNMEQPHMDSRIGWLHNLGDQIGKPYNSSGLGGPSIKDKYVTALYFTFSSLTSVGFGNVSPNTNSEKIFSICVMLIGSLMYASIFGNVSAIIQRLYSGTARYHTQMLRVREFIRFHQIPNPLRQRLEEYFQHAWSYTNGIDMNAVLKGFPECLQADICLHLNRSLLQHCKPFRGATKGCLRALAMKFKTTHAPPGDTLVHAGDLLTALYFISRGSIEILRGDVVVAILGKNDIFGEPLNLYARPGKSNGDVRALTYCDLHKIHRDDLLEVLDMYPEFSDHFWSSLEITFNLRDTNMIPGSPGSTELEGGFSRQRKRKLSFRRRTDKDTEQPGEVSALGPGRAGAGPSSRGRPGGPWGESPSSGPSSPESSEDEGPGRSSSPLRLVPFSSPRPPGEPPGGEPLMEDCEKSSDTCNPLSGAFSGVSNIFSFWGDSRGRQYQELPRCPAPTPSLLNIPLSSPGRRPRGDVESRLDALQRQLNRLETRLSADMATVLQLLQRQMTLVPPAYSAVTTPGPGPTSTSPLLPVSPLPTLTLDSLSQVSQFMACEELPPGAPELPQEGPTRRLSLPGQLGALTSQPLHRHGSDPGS
experimental_details: primary screen, population patch clamp on CHO cells stably expressing hERG; higher = less effect of the substance
Protocol: Briefly, Chinese hamster ovary (CHO) cells stably expressing the hERG channel were dislodged from tissue culture flasks and dispensed into PPC plates. […] During the recording, background leak currents were estimated by a 100 ms step to -80 mV from an initial holding potential of -70 mV and subtracted from the subsequent current measurement. The campaign was conducted in two phases using slight differences in recording protocol. […]
In all, about 310,000 compounds went through this assay and about 14,000 (4.5%) showed an effect of 50% or more. Effects have a minus sign here. This is one part of a sample in which strong results are shown more often than they occur.
// reported hERG current change (%, negative = inhibition) at 10uM for each item listed
Supply the numeric figure in %, leaving out any unit text.

COc1ccc(-c2cc3ccccc3n2CC(O)Cn2nc(C)cc2C)cc1 (stereo not shown)	4.62
CN1CCN(c2ccc(S(=O)(=O)N3CCOCC3)cc2NC(=O)CC(C)(C)C)CC1	8.55
Cc1ccc(NC(=O)/C(=C\c2ccccc2)NC(=O)/C=C/c2ccccc2)cc1	-12.9
CN(CC(CC(=O)Nc1nncs1)c1ccccc1)S(=O)(=O)c1ccccc1 (stereo not shown)	-14.2
COCc1c(C(=O)Nc2nc(C)cs2)oc2ccccc12	-2.57
Cc1c(CN(C)C(=O)/C=C/c2ccc([N+](=O)[O-])cc2)cnn1C	-69.6

Query string: Could you share which hERG current change (%, negative = inhibition) at 10uM value was measured for "Cc1c(CN(C)C(=O)c2ccc(Br)o2)cnn1C" ?
Result string: -7.89
